# tested system: Relaxin receptor 1 (Homo sapiens) (UniProt Q9HBX9)
# Sequence (Q9HBX9 whole entry, looked up): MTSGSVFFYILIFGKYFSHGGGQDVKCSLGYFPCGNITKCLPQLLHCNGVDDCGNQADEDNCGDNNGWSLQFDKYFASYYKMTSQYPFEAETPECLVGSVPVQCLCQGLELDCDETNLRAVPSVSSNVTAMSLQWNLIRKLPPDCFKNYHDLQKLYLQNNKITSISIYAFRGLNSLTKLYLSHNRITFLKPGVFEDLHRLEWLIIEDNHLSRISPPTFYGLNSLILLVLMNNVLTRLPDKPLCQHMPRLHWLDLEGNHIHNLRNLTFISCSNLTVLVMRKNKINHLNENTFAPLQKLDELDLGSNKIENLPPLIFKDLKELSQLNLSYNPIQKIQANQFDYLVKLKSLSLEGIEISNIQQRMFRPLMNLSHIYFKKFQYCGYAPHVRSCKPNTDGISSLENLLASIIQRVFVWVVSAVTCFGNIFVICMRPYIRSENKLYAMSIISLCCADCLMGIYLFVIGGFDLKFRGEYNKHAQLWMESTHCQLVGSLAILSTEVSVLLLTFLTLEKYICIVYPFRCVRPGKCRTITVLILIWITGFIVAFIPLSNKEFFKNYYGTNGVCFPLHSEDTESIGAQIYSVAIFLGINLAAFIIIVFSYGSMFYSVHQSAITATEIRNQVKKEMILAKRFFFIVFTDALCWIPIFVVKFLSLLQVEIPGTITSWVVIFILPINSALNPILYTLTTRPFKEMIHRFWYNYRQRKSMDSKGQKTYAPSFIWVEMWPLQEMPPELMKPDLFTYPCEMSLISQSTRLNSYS
# test details: qHTS Assay for Agonists of the Relaxin Receptor RXFP1; further: nearly all actives have a fitted effect of over 60% in size; on activation: on the % scale 0 is the no-effect control and ±100 the full control effect
# experimental parameters: HEK293T-RXFP1 cAMP TR-FRET, 30 min; series mostly up to 57.5 µM
# Experimental: NIH Chemical Genomics Center [NCGC] NIH Molecular Libraries Probe Production Centers Network [MLPCN] […] RXFP1 activation was assayed by changes in cAMP levels as detected with a time-resolved fluorescence energy transfer (TR-FRET) cAMP detection kit. NCGC Assay Protocol Summary: This is a cell-based assay for cAMP second messenger response to screen for agonists of the RXFP1 receptor. […] The cells were lysed and the cAMP levels were measured with a TR-FRET cAMP kit. […]
Out of some 370,000 compounds screened, about 1,100 (0.3%) were called active. Inconclusive results (about 1%) are left out. The call rests on the fitted dose curve; in most records, active means well fitted activation curve with a large enough effect; inconclusive means small, poorly fitted or top-dose-only effect; inactive means flat fitted curve, though single readings scatter. For the sample, actives were picked, then their nearest neighbours and some compounds at random.
// classify into label 1 = active, label 0 = inactive

Please state the recorded outcome for this compound: O=C(CSc1ncnc2scc(-c3ccccc3)c12)NCc1ccc2c(c1)OCO2 label 0

Please state the recorded outcome for this compound: Cc1cccc(Nc2cc(C)nc(-n3nc(C)cc3C)n2)c1 label 0

Please state the recorded outcome for this compound: CCCSc1ncc(Cl)c(C(=O)Nc2sc3c(c2C(=O)NCCOC)CCCC3)n1 label 0

Please state the recorded outcome for this compound: COc1ccccc1CNC(=O)C(=O)NCC(c1ccco1)S(=O)(=O)c1ccc(F)cc1 (stereo not given) label 0

Please state the recorded outcome for this compound: COc1cccc(Cn2c(CNS(=O)(=O)c3ccc(Cl)s3)nc3cccnc32)c1 label 0

Please state the recorded outcome for this compound: COc1ccc(CCNC(=O)CCCCn2c(=O)c3ccccc3n(Cc3ccccc3C)c2=O)cc1OC label 0

Please state the recorded outcome for this compound: COc1ccc(-c2nc(SCC(=O)N3CCCCC3C)n[nH]2)cc1 (stereo not given) label 0

---

# tested system: Relaxin receptor 1 (Homo sapiens) (UniProt Q9HBX9)
# test details: qHTS Assay for Agonists of the Relaxin Receptor RXFP1; further: nearly all actives have a fitted effect of over 60% in size; on activation: on the % scale 0 is the no-effect control and ±100 the full control effect
# experimental parameters: HEK293T-RXFP1 cAMP TR-FRET, 30 min; series mostly up to 57.5 µM
Among all 370,000 compounds or so, about 1,100 (0.3%) were called active. Roughly 1% stayed inconclusive and do not appear here. Calls follow the shape of the dose curve; as a rule, active = well fitted activation curve with a large enough effect; inconclusive = small, poorly fitted or top-dose-only effect; inactive = flat fitted curve, though single readings scatter. This is one part of a sample in which actives are shown more often than they occur.
// classify into active, inactive

// known answers, use as guide
Please state the recorded outcome for this compound: CCCCNC(=O)CSc1nc2cc3c(cc2c(=O)n1CCCCCC(=O)NCc1ccc2c(c1)OCO2)OCO3 inactive

Please state the recorded outcome for this compound: CCC(Sc1nc2n[nH]c(C)c2c(=N)n1-c1ccccc1Cl)C(=O)N(CC)CC (stereo not drawn) inactive

Would you kindly look at the next entry?
Please state the recorded outcome for this compound: CC1(C)Cc2nc3sc4c(SCC(=O)NC(c5ccccc5)c5ccccc5)ncnc4c3cc2CO1 active

// provenance: PubChem BioAssay AID2676
